System: PC-3
Assay: In vitro cell cytotoxicity assay (CellTiter-Glo)
Assay type: cell-based
assay-endpoint: IC50 (nM)

molecule="h7C3-3-MMAE: h7C3-3 conjugated with MMAE via cleavable valine-citrulline linker, average 3.8-4 MMAE per antibody (conjugate, non-natural residues, h7C3-3 conjugated with MMAE via cleavable valine-citrulline linker, average 3.8-4 MMAE per antibody) VH: QVQLQQPGSVLVRPGASVKLSCKASGYAFTSSWIHWAKQRPGQGLEWIGQIRPNSGNTYYNEKFKVKATLTVDTSSSTAYVDLSSLTSEDSAVYYCARYHYGFDYWGQGTLVTVSS VL: DVLMTQTPLSLPVSLGDQASISCRSSQSIVHSNGNTYLEWYLQKPGQSPKLLIYKVSNRFSGVPDRFSGSGSGTDFTLKISRVEAEDLGVYYCFQGAHLPWTFGGGTKLEIKR" unit=nM experimental_value=21.9
